test: Rat pharmacokinetics, oral dosing; assay type: in vivo, Sprague-Dawley rats; conditions: male, Sprague-Dawley, plasma, oral dosing at 3 mg/kg
Measured bioavailability of individual entries

COc1cc(C(=O)O)cc2c1nc(CN1CCC(c3cccc(OCc4ccc(C#N)cc4F)n3)CC1)n2C[C@@H]1CCO1 | < 25%
Cn1c(CN2CCC(c3cccc4c3O[C@@H](c3ccc(C#N)cc3F)CO4)CC2)nc2c(OCCF)cc(C(=O)O)cc21 | < 25%
COc1cc(C(=O)O)cc2c1nc(CN1CCC(c3cccc(OCc4ccc(C#N)cc4F)n3)CC1)n2C | 50 to 85%
COc1cc(C#N)ccc1COc1cccc(C2CCN(Cc3nc4c(OC(F)F)cc(C(=O)O)cc4n3C)CC2)n1 | 50 to 85%
C[C@]1(c2ccc(Cl)cn2)Oc2cccc(C3CCN(Cc4nc5c(OC6CC6)cc(C(=O)O)cc5n4Cc4cncs4)CC3)c2O1 | 25 to 50%

Just so you know, measured bioavailability for Cn1c(CN2CCC(c3cccc4c3O[C@@](C)(c3ccc(Cl)cn3)O4)CC2)nc2c(OC(F)F)cc(C(=O)O)cc21 came out at > 85%

Kindly note the recorded bioavailability for [2H]C([2H])([2H])Oc1cc(C(=O)O)cc2c1nc(CN1CCC(c3cccc(OCc4ccc(Cl)cc4F)n3)CC1)n2C , which is 50 to 85%

====

target: human GLP-1R receptor (Homo sapiens); construct: expressed in transfected cells; assay: GLP-1R low expression cell assay (cAMP TR-FRET, CHO-K1_hGLP-1Rlow_clone10 cells); assay type: cell-based; conditions: maximum activation relative to control GLP-1 peptide agonist
reported-property: Emax

Record excerpt, results attached:
Cn1c(CN2CCC(c3cccc(Cl)c3OCc3ccc(C#N)cc3F)CC2)nc2c(OC(F)F)cc(C(=O)O)cc21 [Compound 138] | 25 to 50%
Cn1c(CN2CCC(c3cccc(OCc4ccc(C#N)cc4F)n3)CC2)nc2c(OC(C)(F)F)cc(C(=O)O)cc21 [Compound 180] | > 85%
Cc1ccc(COc2cccc(C3CCN(Cc4nc5c(OC(F)F)cc(C(=O)O)cc5n4C)CC3)n2)c(F)c1 [Compound 238] | > 85%

Entry COc1c(F)c(C(=O)O)cc2c1nc(CN1CCC(c3cccc(OCc4ccc(C#N)cc4F)n3)CC1)n2C [Compound 301] , tested on human GLP-1R receptor (Homo sapiens), has a reported Emax of > 85%

====

target: human GLP-1R receptor (Homo sapiens, UniProt P43220); test: GLP-1R low expression cell assay (cAMP TR-FRET, CHO-K1_hGLP-1Rlow_clone10 cells); conditions: cAMP TR-FRET, 30 min at 25° C.
Sequence (P43220 24-463): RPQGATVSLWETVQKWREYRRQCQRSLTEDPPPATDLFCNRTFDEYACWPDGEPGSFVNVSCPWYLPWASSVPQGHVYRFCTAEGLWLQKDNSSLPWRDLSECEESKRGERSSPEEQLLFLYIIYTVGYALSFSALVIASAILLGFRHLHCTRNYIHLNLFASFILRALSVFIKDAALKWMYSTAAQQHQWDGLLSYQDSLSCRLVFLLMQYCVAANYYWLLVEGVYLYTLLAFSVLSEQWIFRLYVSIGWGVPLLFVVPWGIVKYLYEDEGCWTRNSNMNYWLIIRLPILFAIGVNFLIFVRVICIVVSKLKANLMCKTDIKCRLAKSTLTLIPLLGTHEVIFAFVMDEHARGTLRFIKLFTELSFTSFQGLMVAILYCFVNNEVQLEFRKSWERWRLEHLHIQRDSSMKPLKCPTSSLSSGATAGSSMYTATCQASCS
pEC50: −log10 of the molar value.
reported-property: pEC50

The examples below pair each entry with its known result.
CCOc1cc(-c2cc(=O)[nH]o2)cc2c1nc(CN1CCC(c3cccc(OCc4ccc(C#N)cc4F)n3)CC1)n2C | 7.00 to 8.00
COCCOc1cc(C(=O)O)cc2c1nc(CN1CCC(c3cccc4c3O[C@](C)(c3ccc(Cl)cn3)O4)CC1)n2Cc1cncs1 | 6.00 to 7.00

Entry Cn1c(CN2CCC(c3cccc(OCc4ccc(Cl)cc4F)n3)CC2)nc2c(OCC3CC3)cc(C(=O)O)cc21 ; assay system human GLP-1R receptor (Homo sapiens, UniProt P43220); pEC50 recorded at > 8.00

Query N#Cc1ccc(COc2cccc(C3CCN(Cc4nc5c(O)cc(C(=O)O)cc5n4Cc4cncs4)CC3)n2)c(F)c1 on human GLP-1R receptor (Homo sapiens, UniProt P43220); pEC50 returned: > 8.00

====

# pEC50 per entry
molecular target: human GLP-1R receptor (Homo sapiens); test: GLP-1R low expression cell assay (cAMP TR-FRET, CHO-K1_hGLP-1Rlow_clone10 cells); conditions: cAMP TR-FRET, 30 min at 25° C.
pEC50: −log10 of the molar value.

Field: example entries. Status: answers known.
COc1cc(C(=O)O)cc2c1nc(CN1CCC(c3cccc4c3O[C@H](c3ccc(C#N)cc3F)CO4)CC1)n2Cc1cncs1 [Compound 91] | 6.00 to 7.00
CCOc1cc(CC(=O)O)cc2c1nc(CN1CCC(c3cccc(OCc4ccc(C#N)cc4F)n3)CC1)n2C [Compound 259] | 6.00 to 7.00
Cn1c(CN2CCC(c3cccc(OCc4cc(F)c(C#N)cc4F)n3)CC2)nc2c(OC(F)F)cc(C(=O)O)cc21 [Compound 366] | > 8.00
Cn1c(CN2CCC(c3cccc(OCc4ccc(Cl)cc4F)n3)CC2)nc2c(OCC(F)F)cc(C(=O)O)cc21 [Compound 169] | > 8.00
Cn1c(CN2CCC(c3cccc(OCc4ccc(C#N)cc4F)n3)CC2)nc2c(Oc3ccc(F)cc3)cc(C(=O)O)cc21 [Compound 352] | 6.00 to 7.00
Cn1c(CN2CCC(c3cccc(OCc4ccc(C#N)cc4F)c3Cl)CC2)nc2c(OC(F)F)cc(C(=O)O)cc21 [Compound 179] | < 6.00

Notebook: Cn1c(CN2CCC(c3cccc(OCc4ccc(Cl)cc4F)n3)CC2)nc2c3c(c(C(=O)O)cc21)OCO3 [Compound 275] , pEC50 read as 7.00 to 8.00

Briefly, pEC50 measured for CC(F)(F)c1cc(C(=O)O)cc2c1nc(CN1CCC(c3cccc4c3O[C@@](C)(c3ccc(Cl)cn3)O4)CC1)n2C[C@@H]1CCO1 [Compound 386] : 7.00 to 8.00

Record COc1cc(C(=O)O)cc2c1nc(N(C)[C@H]1CC[C@H](c3cccc4c3O[C@@](C)(c3ccc(Cl)cn3)O4)CC1)n2C[C@@H]1CCO1 [Compound 80] . Reported pEC50: > 8.00

GET /value?item= COCCOc1cc(C(=O)O)cc2c1nc(CN1CCC(c3cccc4c3O[C@@](C)(c3ccc(Cl)cn3)O4)CC1)n2Cc1cncs1 [Compound 2] &field=pEC50 returns > 8.00

For record C[C@H](F)Oc1cc(C(=O)O)cc2c1nc(CN1CCC(c3cccc(OCc4ccc(C#N)cc4F)n3)CC1)n2C [Compound 313] the listed pEC50 is 7.00 to 8.00

Per the records, this compound ( O=C(O)c1ccc2nc(CN3CCC(c4cccc(OCc5ccc(Cl)cc5F)n4)CC3)c3c(c2c1)COCC3 [Compound 244] ) has pEC50 equal to < 6.00

According to the records, this compound Cn1c(CN2CCC(c3cccc(OCc4ccc(C#N)cc4F)n3)CC2)nc2c(OC(F)(F)F)cc(C(=O)O)cc21 [Compound 125] displays pEC50 of 7.00 to 8.00

Lab note: C[C@H](F)Oc1cc(C(=O)O)cc2c1nc(CN1CCC(c3cccc(OCc4ccc(Cl)cc4F)n3)CC1)n2C (single isomer, unassigned) [Compound 360] gave pEC50 of > 8.00

Briefly, pEC50 measured for Cn1c(CN2CCC(c3ccc(F)c(OCc4ccc(Cl)cc4F)n3)CC2)nc2c(OC(F)F)cc(C(=O)O)cc21 [Compound 242] : 7.00 to 8.00

pEC50 reading for Cn1c(CN2CCC(c3nc(OCc4ccc(Cl)cc4F)ncc3F)CC2)nc2c(OC(F)F)cc(C(=O)O)cc21 [Compound 375] : 6.00 to 7.00

The compound listed as CCOc1cc(C(=O)O)cc2c1nc(CN1CCC(c3cccc4c3OC[C@H](c3ccc(Cl)cc3F)O4)CC1)n2C [Compound 270] shows pEC50 equal to 7.00 to 8.00

Noted for COc1cc(C(=O)O)c(F)c2c1nc(CN1CCC(c3ccc(F)c(OCc4ccc(Cl)cc4F)c3)CC1)n2C [Compound 340] : its pEC50 reads 7.00 to 8.00

# compound C[C@@]1(c2ccc(Cl)cn2)Oc2cccc(C3CCN(Cc4nc5c(OC6CC6)cc(C(=O)O)cc5n4Cc4cncs4)CC3)c2O1 [Compound 7] ; its pEC50 = 7.00 to 8.00

====

molecular target: human GLP-1R receptor (Homo sapiens, UniProt P43220); assay: GLP-1R low expression cell assay (cAMP TR-FRET, CHO-K1_hGLP-1Rlow_clone10 cells); conditions: cAMP TR-FRET, 30 min at 25° C.
pEC50: −log10 of the molar value.
reported-property: pEC50

Example cases with answers are listed next.
Cn1c(CN2CCC(c3cccc(OCc4ccc(F)cc4F)n3)CC2)nc2c(OC(F)F)cc(C(=O)O)cc21 | 7.00 to 8.00
Cn1c(Cc2cc(F)c(-c3cccc(OCc4ccc(Cl)cc4F)n3)cc2F)nc2c(OC(F)F)cc(C(=O)O)cc21 | > 8.00
Cn1c(CN2CC=C(c3cccc(OCc4ccc(Cl)cc4F)c3)CC2)nc2c(OC(F)F)cc(C(=O)O)cc21 | 6.00 to 7.00
CCOc1cc(C(=O)O)cc2c1nc(CN1CCC(c3cccc4c3OC[C@@H](c3ccc(Cl)cc3F)O4)CC1)n2C | 6.00 to 7.00
N#Cc1ccc(COc2cccc(C3CCN(Cc4nc5ccc(C(=O)O)c(O)c5n4C[C@@H]4CCO4)CC3)n2)c(F)c1 | > 8.00
[2H]C([2H])([2H])N(c1nc2c(OC(F)F)cc(C(=O)O)cc2n1C)[C@H]1CC[C@H](c2cccc(OCc3ccc(Cl)cc3F)n2)CC1 | > 8.00
Cn1c(CN2CCC(c3cccc(N4CCc5cc(C#N)cc(F)c5C4)n3)CC2)nc2c(OC(F)F)cc(C(=O)O)cc21 | 6.00 to 7.00
CC(F)(F)c1cc(C(=O)O)cc2c1nc(CN1CCC(c3cccc4c3O[C@](C)(c3ccc(Cl)cn3)O4)CC1)n2C[C@@H]1CCO1 | 7.00 to 8.00

Reported pEC50 of Cn1c(CN2CCC(Oc3cccc(COc4ccc(Cl)cc4F)n3)CC2)nc2c(OC(F)F)cc(C(=O)O)cc21 : 7.00 to 8.00

Form field pEC50, entry Cn1c(CN2CCC(c3cccc(OCc4ccc(Cl)cc4F)n3)CC2)nc2c(OCC3(F)CC3)cc(C(=O)O)cc21 : 7.00 to 8.00

Where these numbers come from: patent US20240368120A1
